Taken from the FLAb antibody collection.

test name: patients with anti-drug antibodies; higher = more immunogenic
Assign patients with anti-drug antibodies to each entry below.
One number for each entry, in %.

Solved entries (count: 2):
protein	quantity	measurement unit	recorded number
unnamed (protein) chain 1: EVQLQQSGAELVKPGASVKLSCTASGFNIKDTYVHWVKQRPEQGLEWIGRIDPANGYTKYDPKFQGKATITADTSSNTAYLQLSSLTSEDTAVYYCVRPLYDYYAMDYWGQGTSVTVSS chain 2: DILMTQSPSSMSVSLGDTVSITCHASQGISSNIGWLQQKPGKSFMGLIYYGTNLVDGVPSRFSGSGSGADYSLTISSLDSEDFADYYCVQYAQLPYTFGGGTKLEIK	patients with anti-drug antibodies	%	35.5
unnamed (protein) chain 1: QVQLVESGGGVVQPGRSLRLSCAASGFTFSSYDMSWVRQAPGKGLEWVAKVSSGGGSTYYLDTVQGRFTISRDNSKNTLYLQMNSLRAEDTAVYYCARHLHGSFASWGQGTTVTVSS chain 2: EIVLTQSPATLSLSPGERATLSCQASQSISNFLHWYQQRPGQAPRLLIRYRSQSISGIPARFSGSGSGTDFTLTISSLEPEDFAVYYCQQSGSWPLTFGGGTKVEIK	patients with anti-drug antibodies	%	0

The record that follows has no patients with anti-drug antibodies shown yet.
**Q:** Requested field: patients with anti-drug antibodies. Item: unnamed (protein) chain 1: EVQLVESGGGVVQPGRSLRLSCSASGFDFTTYWMSWVRQAPGKGLEWIGEIHPDSSTINYAPSLKDRFTISRDNAKNTLFLQMDSLRPEDTGVYFCASLYFGFPWFAYWGQGTPVTVSS chain 2: DIQLTQSPSSLSASVGDRVTITCKASQDVGTSVAWYQQKPGKAPKLLIYWTSTRHTGVPSRFSGSGSGTDFTFTISSLQPEDIATYYCQQYSLYRSFGQGTKVEIK
**A:** 0
